Give IC50 for every item shown.
# Tested on: A673
# assay.name: Inhibition of cell proliferation of human A673 cells incubated for 72 hrs by CyQUANT assay
# Assay type: functional, cell-based
# assay.conditions: A673, 72 h
State just the number; it will be interpreted in nM.

Exercise: # get_value(readout='IC50', item= Clc1cnc(N[C@H]2CCCNC2)nc1-c1c[nH]c2cccnc12 )
Solution: 20

Exercise: # get_value(readout='IC50', item= CCc1cnc(N[C@H]2CCCNC2)nc1-c1c[nH]c2c(C)cccc12 )
Solution: 20

Exercise: # get_value(readout='IC50', item= CCc1cnc(N[C@H]2CCCNC2)nc1-c1c[nH]c2ccccc12 )
Solution: 20

Exercise: # get_value(readout='IC50', item= Fc1ccc2[nH]cc(-c3nc(N[C@H]4CCCNC4)ncc3Cl)c2c1 )
Solution: 20

Exercise: # get_value(readout='IC50', item= C[C@H](O)c1cnc(N[C@H]2CCCNC2)nc1-c1c[nH]c2ccccc12 )
Solution: 200

Exercise: # get_value(readout='IC50', item= CC1(C)CCNC[C@@H]1Nc1ncc(C(F)(F)F)c(-c2c[nH]c3ccccc23)n1 (single isomer, unassigned) )
Solution: 20

Exercise: # get_value(readout='IC50', item= N#Cc1ccc2[nH]cc(-c3nc(N[C@H]4CCCNC4)ncc3C(F)(F)F)c2c1 )
Solution: 200

Exercise: # get_value(readout='IC50', item= COCCn1cc(-c2nc(N[C@H]3CCCNC3)ncc2Cl)c2ccccc21 )
Solution: 200

Exercise: # get_value(readout='IC50', item= Clc1cnc(N[C@@H]2CCCNC2)nc1-c1c[nH]c2ccccc12 )
Solution: 20

Exercise: # get_value(readout='IC50', item= CNC(=O)c1ccc2c(-c3nc(N[C@H]4CCCNC4)ncc3C(F)(F)F)c[nH]c2c1 )
Solution: 20

Exercise: # get_value(readout='IC50', item= CNC(=O)[C@@H]1CNC[C@H](Nc2ncc(C(F)(F)F)c(-c3c[nH]c4ccccc34)n2)C1 )
Solution: 20

Exercise: # get_value(readout='IC50', item= CC1(O)CCN(C(=O)c2ccc3c(-c4nc(N[C@H]5CCCNC5)ncc4C(F)(F)F)c[nH]c3c2)C1 (single isomer, unassigned) )
Solution: 200

Exercise: # get_value(readout='IC50', item= CC1(Nc2ncc(Cl)c(-c3c[nH]c4ccccc34)n2)CCCNC1 (centres undefined) )
Solution: 200

Exercise: # get_value(readout='IC50', item= N#C[C@@H]1CCN(C(=O)c2ccc3c(-c4nc(N[C@H]5CCCNC5)ncc4C(F)(F)F)c[nH]c3c2)C1 )
Solution: 20

---

# System: A673
# assay.name: Inhibition of cell proliferation of human A673 cells incubated for 72 hrs by CyQUANT assay
# Format: functional, cell-based
# assay.conditions: A673, 72 h
reported.property: pIC50
Scale: negative log10 of molar concentration, which is what pIC50 denotes.

Exercise: # get_value(readout='pIC50', item= CNC(=O)[C@@H]1CNC[C@@H](Nc2ncc(C(F)(F)F)c(-c3c[nH]c4ccccc34)n2)C1 )
Solution: 6.70

Exercise: # get_value(readout='pIC50', item= FC(F)(F)c1cnc(N[C@H]2CCCNC2)nc1-c1c[nH]c2ccc(-c3cn[nH]c3)cc12 )
Solution: 6.70

Exercise: # get_value(readout='pIC50', item= Clc1cnc(NC2(c3ccccc3)CCCNC2)nc1-c1c[nH]c2ccccc12 (stereo not given) )
Solution: 6.70

Exercise: # get_value(readout='pIC50', item= FC(F)(F)c1cnc(N[C@H]2CCCNC2)nc1-c1c[nH]c2cnc(Cl)cc12 )
Solution: 7.70

Exercise: # get_value(readout='pIC50', item= COCCn1cc(-c2nc(N[C@H]3CCCNC3)ncc2C(F)(F)F)c2ccccc21 )
Solution: 6.70

Exercise: # get_value(readout='pIC50', item= Clc1cnc(NC2CNCCC2c2ccccc2)nc1-c1c[nH]c2ccccc12 (stereo not given) )
Solution: 6.70

Exercise: # get_value(readout='pIC50', item= CCOP(=O)(OCC)c1ccc2c(-c3nc(N[C@H]4CCCNC4)ncc3C(F)(F)F)c[nH]c2c1 )
Solution: 7.70

Exercise: # get_value(readout='pIC50', item= Cc1cnc(N[C@H]2CCCNC2)nc1-c1c[nH]c2ccccc12 )
Solution: 7.70

Exercise: # get_value(readout='pIC50', item= Clc1cnc(N[C@H]2CCCNC2)nc1-c1c[nH]c2ncccc12 )
Solution: 7.70
